# assayComment: NP TLC on non-impregnated control plates
# Type: physicochemical
# condition: Table S3, non-impregnated NP plate; acetonitrile/acetate buffer pH 7.4/methanol 60:20:20
In this section we review reported CNP (Rf, control NP plate) values for a set of compounds.
Just the number, please, no unit after it.

Worked examples follow.
C[C@](N)(Cc1ccc(O)c(O)c1)C(=O)O [methyldopa] : 0.38
CCOc1ccc(/C=C2\NCCc3cc(OCC)c(OCC)cc32)cc1OCC [drotaverine] : 0.61
CN1CCN(C(=O)OC2c3nccnc3C(=O)N2c2ccc(Cl)cn2)CC1 (centres unmarked) [zopiclone] : 0.96
Cc1ccc(S(=O)(=O)NC(=O)NN2CC3CCCC3C2)cc1 (centres unmarked) [gliclazide] : 0.95

Query: Entry under review: NC(=O)N1c2ccccc2C=Cc2ccccc21 [carbamazepine] . Reported CNP (Rf, control NP plate)?
Reply: 0.95

Query: Ok, now C=CCN1C[C@H](C(=O)N(CCCN(C)C)C(=O)NCC)C[C@@H]2c3cccc4[nH]cc(c34)C[C@H]21 [carbegoline]
Reply: 0.68

Query: Ok, now CNCCC(Oc1ccc(C(F)(F)F)cc1)c1ccccc1 (centres unmarked) [fluoxetine]
Reply: 0.68

Query: Ok, now CN1CCN2c3ccccc3Cc3ccccc3C2C1 (centres unmarked) [mianserin]
Reply: 0.54

Query: Ok, now CN(C)CCC[C@@]1(c2ccc(F)cc2)OCc2cc(C#N)ccc21 [escitalopram]
Reply: 0.42

Query: Ok, now CN1CCN2c3ncccc3Cc3ccccc3C2C1 (centres unmarked) [mirtazapine]
Reply: 0.39

Query: Ok, now CCN1CCCC1CNC(=O)c1cc(S(N)(=O)=O)ccc1OC (centres unmarked) [sulpiride]
Reply: 0.27

Taken from paper PMC9182007.
